This collection of values is drawn from ChEMBL document CHEMBL1201862.

test system: MDA-MB-231; test: NCI tumour cell line growth inhibition, 48 h
Calls of active or inactive are those of the source. No stated cut-off is given here; in the data, active = GI50 up to about 1.1 µM and inactive = higher.
Entry note: the call must match one of 1 (active), 0 (inactive)

These recorded examples may help you get a feel for the data.
Molecule: C=C(C)[C@@H]1CC[C@]2(C(=O)O)CC[C@]3(C)[C@H](CC[C@@H]4[C@@]5(C)CC[C@H](C(=O)/C=C/c6ccc(O)cc6)C(C)(C)[C@@H]5CC[C@]43C)[C@@H]12
Assigned Category: 0
--
Molecule: CCc1cccc(CC)c1Nc1nc2c(s1)C(=O)c1ccccc1C2=O
Assigned Category: 0
--
Molecule: C/C(=N/NC(=S)Nc1ccc(C)cc1)c1ccccn1
Assigned Category: 1

Ask: I'd appreciate the recorded outcome for COc1cc2c(cc1OC)C1c3ccccc3CCN1CCC2.[O-][Cl+3]([O-])([O-])O (stereo unspecified) from this test.
Reply: 0

Ask: Test call for this molecule, please: "CN(C)CCCN1c2ccc([N+](=O)[O-])cc2CCc2cccc([N+](=O)[O-])c21"
Reply: 0

Ask: Hello, I am checking results. What call was entered for "O=C1C=CC(=O)N1n1c(Cc2ccccc2)n[nH]c1=O" ?
Reply: 0

Ask: // return assay outcome for "CCOC(=O)c1c2c(n(-c3ccc(C)cc3)c1C)-c1ccccc1C(=O)C2(C(=O)OCC)C(=O)OCC"
Reply: 0

Ask: I would be grateful if you could indicate the recorded call for O=C1CSC(c2ccc([N+](=O)[O-])cc2)N1c1ccc(-c2ccc(-n3c(-c4ccccc4)nc4ccccc4c3=O)cc2)cc1 (stereo unspecified) .
Reply: 0

Ask: Could you kindly confirm the outcome this assay logged for "Oc1c(Br)cc(Br)cc1CN(Cc1cc(Br)cc(Br)c1O)C1CCCCC1" ?
Reply: 0

Ask: Called result for "COc1ccc(/C=C2/C(=O)N(C(=O)c3ccccc3O)N=C2C)cc1OC"
Reply: 0

Ask: Per the records of this test, what outcome belongs to "CN(C)C(=S)SCC(=O)Nc1ccccc1" ?
Reply: 0
